Molecular target: T1, human CRH receptor type 2 (human, UniProt Q13324 1-411)
T1 sequence (looked up): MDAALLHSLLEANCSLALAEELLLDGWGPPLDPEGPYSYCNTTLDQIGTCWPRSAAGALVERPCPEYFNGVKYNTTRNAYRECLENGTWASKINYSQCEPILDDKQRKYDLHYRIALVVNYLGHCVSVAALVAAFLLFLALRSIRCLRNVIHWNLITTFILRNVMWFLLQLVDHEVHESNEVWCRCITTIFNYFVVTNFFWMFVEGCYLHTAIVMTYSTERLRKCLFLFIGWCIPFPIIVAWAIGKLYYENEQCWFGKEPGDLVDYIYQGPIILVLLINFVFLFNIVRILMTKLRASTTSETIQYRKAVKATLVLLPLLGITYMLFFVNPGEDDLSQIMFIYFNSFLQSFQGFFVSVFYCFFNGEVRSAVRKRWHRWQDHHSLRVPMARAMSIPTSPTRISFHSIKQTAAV
Assay: cell-based or functional assay
No end group written: not given here.
I'd be grateful if you could share measured Log DR against h-SCP, cAMP for these entries.
Give your result in log10 ratio as a bare value.

Bench note: what Log DR against h-SCP, cAMP did TKFTLSLDVPTNICNLLFNIAKAKNLRAQAAANAHLMAQI-NH2 [Cys-variant CRHR2 peptide agonist, SEQ ID NO: 15] show? 0.9

Bench note: what Log DR against h-SCP, cAMP did TKFTLSLDVPTNIMNLLFNIAKAKNLCAQAAANAHLMAQI-NH2 [Cys-variant CRHR2 peptide agonist, SEQ ID NO: 28] show? 0.16
